Where these numbers come from: paper PMC7790123

assay: Drug concentration in free plasma and CSF after dosing; assay type: in vivo, rat; conditions: male, rat, plasma (free, unbound concentration), intraperitoneal, 15 mg/kg
PROPERTY_MEASURED: concentration at 4 h (nM)
Supply the numeric figure in nM, leaving out any unit text.

Task: Field request: concentration at 4 h | item: Cc1ccc(C(=O)c2cc(O)c(O)c([N+](=O)[O-])c2)cc1
Result: 4

---

assay: Drug concentration in free plasma and CSF after dosing; format: in vivo, rat; conditions: female, rat, plasma (free, unbound concentration), intraperitoneal, 15 mg/kg
PROPERTY_MEASURED: concentration at 4 h (nM)
Write down the numeric answer in nM and omit the unit.

Task: Endpoint output: concentration at 4 h of Cc1ccc(C(=O)c2cc(O)c(O)c([N+](=O)[O-])c2)cc1 [Tolcapone, tolcapone] . Value?
Result: 10
